biological target: recombinant human BACE-1 (rhBACE-1) (Homo sapiens); construct: expressed as only an extracellular region (amino acid 1-460 residues) of recombinant human β-secretase; His tag (C); purchased R&D systems (Minneapolis, Minn.); host or cells: murine myeloma cell line NS0; test: BACE1 inhibitory activity, reverse phase HPLC quantitation of N-terminal fragment of fluorogenic substrate; type: biochemical; conditions: 1 μL of inhibitor solution in DMSO (100 μM) in 50 μL reaction; MES buffer pH 5.0; 37° C., 60 minutes
Sequence (P56817 22-460 limits assumed): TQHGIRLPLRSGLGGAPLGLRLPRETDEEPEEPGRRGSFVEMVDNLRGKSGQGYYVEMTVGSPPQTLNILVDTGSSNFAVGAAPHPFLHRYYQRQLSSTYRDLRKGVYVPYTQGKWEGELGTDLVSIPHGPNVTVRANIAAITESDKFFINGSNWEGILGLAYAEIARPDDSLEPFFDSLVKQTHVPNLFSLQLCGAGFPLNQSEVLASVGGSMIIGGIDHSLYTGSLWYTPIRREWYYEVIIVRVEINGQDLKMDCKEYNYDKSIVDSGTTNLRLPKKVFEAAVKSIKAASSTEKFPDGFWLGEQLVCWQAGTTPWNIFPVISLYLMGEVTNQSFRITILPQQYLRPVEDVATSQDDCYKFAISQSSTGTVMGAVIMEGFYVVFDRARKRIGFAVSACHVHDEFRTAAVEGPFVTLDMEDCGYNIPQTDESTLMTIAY
Numbered stars: 1 amine (or outer) side, 2 acyl side, 3 side chain; on linkers, the order of the positions; unused ones are H or OH. Square brackets hold non-standard residues; d marks the D form. Peptide text beside a SMILES is read from it. ξ: configuration not given here. β3hPhe(2R-OH) = O=C([C@H](O)[C@H](Cc1ccccc1)N[*:1])[*:2]; Thz(5,5-Me2) = CC1(C)SCN[C@@H]1C(=O)O; 4Amb = NCc1ccc(C(=O)O)cc1; ξE = NC(CCC(=O)O)C(=O)O; Aib = CC(C)(N)C(=O)O
MEASURED ENDPOINT: inhibition at 2 µM

INSERT INTO results (compound, measured_endpoint, reading) VALUES
  ('Cc1c(O)cccc1C(=O)NC[C@H](N)C(=O)N[C@H](C(=O)N[C@@H](CC(C)C)C(=O)N[C@@H](Cc1ccccc1)[C@@H](O)C(=O)Nc1cccc(C(=O)O)c1)C(C)C', 'inhibition at 2 µM', '50.5%'),
  ('CC(C)C[C@H](NC(=O)[C@@H](NC(=O)[C@@H](N)CCC(=O)O)C(C)C)C(=O)N[C@@H](Cc1ccccc1)[C@@H](O)C(=O)N[C@@H](CC(=O)O)C(=O)N[C@@H](C)C(=O)NCc1ccc(C(=O)O)cc1 [Example 108] (H-EVL[β3hPhe(2R-OH)]DA[4Amb]-OH)', 'inhibition at 2 µM', '51.3%'),
  ('CC(C)C[C@H](NC(=O)[C@@H](NC(=O)[C@@H](N)CCC(=O)O)C(C)C)C(=O)N[C@@H](Cc1ccccc1)[C@@H](O)C(=O)N1CSC(C)(C)[C@H]1C(=O)N[C@@H](C)C(=O)NC(CCC(=O)O)C(=O)N[C@@H](Cc1ccccc1)C(=O)O (stereo partly drawn) [Example 106] (H-EVL[β3hPhe(2R-OH)][Thz(5,5-Me2)]A[ξE]F-OH)', 'inhibition at 2 µM', '53%');

**Q:** Suppose we examine the compound CC(C)C[C@H](NC(=O)[C@@H](NC(=O)[C@@H](N)CCC(=O)O)C(C)C)C(=O)N[C@@H](Cc1ccccc1)[C@@H](O)C(=O)N[C@@H](CC(=O)O)C(=O)NC(C)(C)C(=O)N[C@@H](CCC(=O)O)C(=O)O [Example 91] (H-EVL[β3hPhe(2R-OH)]D[Aib]E-OH) ; what inhibition at 2 µM value has been reported?
**A:** 68.9%

* * *

target: recombinant human BACE-1 (rhBACE-1) (Homo sapiens); construct: expressed as only an extracellular region (amino acid 1-460 residues) of recombinant human β-secretase; His tag (C); purchased R&D systems (Minneapolis, Minn.); host or cells: murine myeloma cell line NS0; test: BACE1 inhibitory activity, reverse phase HPLC quantitation of N-terminal fragment of fluorogenic substrate; type: biochemical; settings: 1 μL of inhibitor solution in DMSO (100 μM) in 50 μL reaction; MES buffer pH 5.0; 37° C., 60 minutes
Numbered stars: 1 amine (or outer) side, 2 acyl side, 3 side chain; on linkers, the order of the positions; unused ones are H or OH. Square brackets hold non-standard residues; d marks the D form. Peptide text beside a SMILES is read from it. β3hPhe(2R-OH) = O=C([C@H](O)[C@H](Cc1ccccc1)N[*:1])[*:2]; Oxalyl = O=C(C(=O)[*:2])[*:1]; Orn = NCCC[C@H](N)C(=O)O
MEASURED ENDPOINT: inhibition at 2 µM (%)
One number for each entry, in %.

Example entries and their recorded answers appear below.
INSERT INTO results (compound, reading) VALUES
  ('CC(C)[C@H](NC(=O)[C@@H](N)CNC(=O)C(=O)O)C(=O)N[C@@H](CC1CCCCC1)C(=O)N[C@@H](Cc1ccccc1)[C@@H](O)C(=O)Nc1cc(C(=O)O)cc(C(=O)O)c1', 99.6),
  ('CC(C)[C@H](NC(=O)[C@@H](N)CNC(=O)c1nnn[nH]1)C(=O)N[C@@H](CC1CCCCC1)C(=O)N[C@@H](Cc1ccccc1)[C@@H](O)C(=O)Nc1cccc(C(=O)O)c1', 99.5),
  ('CC(C)C[C@H](NC(=O)[C@@H](NC(=O)[C@@H](N)CCCNC(=O)C(=O)O)C(C)C)C(=O)N[C@@H](Cc1ccccc1)[C@@H](O)C(=O)N[C@@H](CC(=O)O)C(=O)N[C@@H](C)C(=O)N[C@@H](CCC(=O)O)C(=O)O [Example 101] (H-[Orn](Oxalyl)VL[β3hPhe(2R-OH)]DAE-OH)', 56.1);

Now look at this entry.
**Q:** Suppose we examine the compound CC(C)C[C@H](NC(=O)[C@@H](NC(=O)[C@@H](N)CCC(=O)O)C(C)C)C(=O)N[C@@H](Cc1ccccc1)[C@@H](O)C(=O)Nc1cccc(C(=O)OCC(F)(F)F)c1 ; what inhibition at 2 µM value has been reported?
**A:** 59.6

* * *

Biological target: recombinant human BACE-1 (rhBACE-1) (Homo sapiens)
Construct: expressed as only an extracellular region (amino acid 1-460 residues) of recombinant human β-secretase; His tag (C); purchased R&D systems (Minneapolis, Minn.); host or cells: murine myeloma cell line NS0
Test: BACE1 inhibitory activity, reverse phase HPLC quantitation of N-terminal fragment of fluorogenic substrate
Type: biochemical
Settings: 1 μL of inhibitor solution in DMSO (100 μM) in 50 μL reaction; MES buffer pH 5.0; 37° C., 60 minutes
Description: Experiment Regarding Measurement of BACE1 Inhibitory Activity Enzyme Used in Measurement As an enzyme having β-secretase activity, recombinant human BACE-1 (rhBACE-1) purchased from R&D systems (Minneapolis, Minn.) was used. rhBACE-1 is expressed as only an extracellular region (amino acid 1-460 residues) of recombinant human β-secretase, with a His tag at its carboxyl terminal in murine myeloma cell line, NS0. […]
Numbered stars: 1 amine (or outer) side, 2 acyl side, 3 side chain; on linkers, the order of the positions; unused ones are H or OH. Square brackets hold non-standard residues; d marks the D form. Peptide text beside a SMILES is read from it. β3hPhe(2R-OH) = O=C([C@H](O)[C@H](Cc1ccccc1)N[*:1])[*:2]; 4Abz = Nc1ccc(C(=O)O)cc1
MEASURED ENDPOINT: inhibition at 2 µM (%)
Answers are plain numbers, in %.

Example entries and their recorded answers appear below.
INSERT INTO results (compound, uom, reading) VALUES
  ('CC(C)C[C@H](NC(=O)[C@@H](NC(=O)[C@@H](N)CCC(=O)O)C(C)C)C(=O)N[C@@H](Cc1ccccc1)[C@@H](O)C(=O)Nc1ccc(CC(=O)O)cc1 [Example 89]', '%', 69.8),
  ('CC(C)[C@H](NC(=O)[C@@H](NC(=O)[C@@H](N)CCC(=O)O)C(C)C)C(=O)N[C@@H](Cc1ccccc1)[C@@H](O)C(=O)N[C@@H](CC(=O)O)C(=O)N[C@@H](C)C(=O)N[C@@H](CCC(=O)O)C(=O)N[C@@H](Cc1ccccc1)C(=O)O [Example 123] (H-EVV[β3hPhe(2R-OH)]DAEF-OH)', '%', 61.4),
  ('CC(C)C[C@H](NC(=O)[C@@H](NC(=O)[C@@H](N)CCC(=O)O)C(C)C)C(=O)N[C@@H](Cc1ccccc1)[C@@H](O)C(=O)N[C@@H](CC(=O)O)C(=O)Nc1ccc(C(=O)O)cc1 [Example 76] (H-EVL[β3hPhe(2R-OH)]D[4Abz]-OH)', '%', 89.5);

Now look at this entry.
**Q:** Suppose we examine the compound CC(C)C[C@H](NC(=O)[C@@H](NC(=O)[C@H](CN)NC(=O)C(=O)O)C(C)C)C(=O)N[C@@H](Cc1ccccc1)[C@@H](O)C(=O)Nc1cccc(C(=O)O)c1 [Example 77] ; what inhibition at 2 µM value has been reported?
**A:** 87.9
